Sourced from ChEMBL document CHEMBL4004868

test system: SW480; assay: Cytotoxicity against human SW480 cells assessed as decrease in cell viability after 72 hrs by MTT assay; assay type: functional
Classify: y when IG50 is strictly less than 10 µM; n when IG50 is not.

| chemical smiles | assayed system | label |
| --- | --- | --- |
| C#Cc1cccc(Nc2ncnc3ccc(-c4ccc(COC(C)=O)o4)cc23)c1 | SW480 | n |
| C/C=C/c1ccc(Nc2ncnc3ccc(-c4ccc(CO)o4)cc23)cc1 | SW480 | n |
| C#Cc1cccc(Nc2ncnc3ccc(-c4ccc(CO)o4)cc23)c1 | SW480 | n |
| OCc1ccc(-c2ccc3ncnc(Nc4ccc(OCc5cccc(F)c5)c(Cl)c4)c3c2)o1 | SW480 | y |
| OCc1ccc(-c2ccc3ncnc(Nc4ccc(F)c(Cl)c4)c3c2)o1 | SW480 | n |

IG50 strictly < 10 µM for this compound? CC(=O)OCc1ccc(-c2ccc3ncnc(Nc4ccc(F)c(Cl)c4)c3c2)o1
n

Follow-up item: C/C=C/c1ccc(Nc2ncnc3ccc(-c4ccc(COC(C)=O)o4)cc23)cc1
n

Follow-up item: CC(=O)OCc1ccc(-c2ccc3ncnc(Nc4ccc(OCc5cccc(F)c5)c(Cl)c4)c3c2)o1
y

Follow-up item: CS(=O)(=O)CCNCc1ccc(-c2ccc3ncnc(Nc4ccc(OCc5cccc(F)c5)c(Cl)c4)c3c2)o1
n

Follow-up item: C#Cc1cccc(Nc2ncnc3ccc(-c4ccc(CNCCS(C)(=O)=O)o4)cc23)c1
n

Follow-up item: C/C=C/c1ccc(Nc2ncnc3ccc(-c4ccc(CNCCS(C)(=O)=O)o4)cc23)cc1
n

Follow-up item: CS(=O)(=O)CCNCc1ccc(-c2ccc3ncnc(Nc4ccc(F)c(Cl)c4)c3c2)o1
n
